Data credit: ChEMBL document CHEMBL3232874

# PROTOCOL_TEXT: Inhibition of human recombinant purple acid phosphatase at pH 3.3
Square brackets hold non-standard residues; d marks the D form. Peptide text beside a SMILES is read from it. * marks the point of attachment. F2Pmp = N[C@@H](Cc1ccc(C(F)(F)P(=O)(O)O)cc1)C(=O)O; Fmoc = O=C(OCC1c2ccccc2-c2ccccc21)*
Reported Ki values for a set of molecules
MEASURED_PARAMETER: Ki (µM)

MOLECULE | MEASURED_PARAMETER | TEST_VALUE
C[C@H](NC(=O)[C@H](Cc1ccc(C(F)(F)P(=O)(O)O)cc1)NC(=O)[C@H](CCC(=O)O)NC(=O)OCC1c2ccccc2-c2ccccc21)C(=O)O (Fmoc-Glu-[F2Pmp]-Ala-OH) | Ki | 67
C[C@H](NC(=O)[C@H](Cc1ccc(OC(C(=O)O)C(=O)O)cc1)NC(=O)[C@H](CCC(=O)O)NC(=O)OCC1c2ccccc2-c2ccccc21)C(=O)O | Ki | 14
C[C@H](NC(=O)[C@H](Cc1ccc(OC(F)(C(=O)O)C(=O)O)cc1)NC(=O)[C@H](CCC(=O)O)NC(=O)OCC1c2ccccc2-c2ccccc21)C(=O)O | Ki | 36
